assay: Maternal plasma drug concentrations by HPLC tandem mass spectrometry at 36-weeks' gestation
details: mean ± SE, from baseline (T0) to post-dose 3 (T3)
recorded metric: Δ T3-T0, change in dose-adjusted plasma concentration

INSERT INTO results (compound, result) VALUES
  ('CN(C)CCCC1(c2ccc(F)cc2)OCc2cc(C#N)ccc21 (centres unmarked)', '3.2 ± 1.0 ng/ml·mg'),
  ('CNCCC(Oc1ccc(C(F)(F)F)cc1)c1ccccc1 (centres unmarked)', '4.3 ± 2.5 ng/ml·mg'),
  ('Fc1ccc([C@@H]2CCNC[C@H]2COc2ccc3c(c2)OCO3)cc1', '0.13 ± 0.21 ng/ml·mg'),
  ('CN[C@H]1CC[C@@H](c2ccc(Cl)c(Cl)c2)c2ccccc21', '0.71 ± 0.53 ng/ml·mg'),
  ('COc1ccc(C(CN(C)C)C2(O)CCCCC2)cc1 (centres unmarked)', '0.43 ± 0.13 ng/ml·mg');

###

AUC(0-t) for assorted compounds
assay: Non-compartmental pharmacokinetic analysis of maternal SRI plasma levels
Assay type: in vivo, human
details: female, human; mean ± SE; area under the curve from T0 (baseline) to last measured plasma concentration (T4); SRI-treated women, 36-weeks' gestation, daily oral dose
recorded metric: AUC(0-t) (ng·h/mL)

INSERT INTO measurements (compound, value_unit, recorded_number) VALUES
  ('CN(C)CCCC1(c2ccc(F)cc2)OCc2cc(C#N)ccc21 (centres unmarked)', 'ng·h/mL', 906),
  ('CN[C@H]1CC[C@@H](c2ccc(Cl)c(Cl)c2)c2ccccc21', 'ng·h/mL', 728),
  ('COc1ccc(C(CN(C)C)C2(O)CCCCC2)cc1 (centres unmarked)', 'ng·h/mL', 621),
  ('Fc1ccc([C@@H]2CCNC[C@H]2COc2ccc3c(c2)OCO3)cc1', 'ng·h/mL', 125),
  ('CNCCC(Oc1ccc(C(F)(F)F)cc1)c1ccccc1 (centres unmarked)', 'ng·h/mL', 3220);

###

assay: Non-compartmental pharmacokinetic analysis of maternal SRI plasma levels
Assay type: in vivo, human
details: female, human; mean ± SE; maximum (peak) maternal plasma drug concentration; 36-weeks' gestation, daily oral dose
recorded metric: Cmax (ng/mL)

INSERT INTO assay_data (compound, recorded_number) VALUES
  ('CN[C@H]1CC[C@@H](c2ccc(Cl)c(Cl)c2)c2ccccc21 [Sertraline]', 197),
  ('CNCCC(Oc1ccc(C(F)(F)F)cc1)c1ccccc1 (centres unmarked) [Fluoxetine]', 613),
  ('CN(C)CCCC1(c2ccc(F)cc2)OCc2cc(C#N)ccc21 (centres unmarked) [Citalopram]', 274),
  ('Fc1ccc([C@@H]2CCNC[C@H]2COc2ccc3c(c2)OCO3)cc1 [Paroxetine]', 24),
  ('COc1ccc(C(CN(C)C)C2(O)CCCCC2)cc1 (centres unmarked) [Venlafaxine]', 163);
